molecular target: T1, human CTLA4 (full-length, expressed on CHO cells) (human, UniProt P16410 36-223); assay: flow cytometry MFI at 33.3 nM relative to WT CD80 ECD-Fc (R&D), CHO/huCTLA4 cells
T1 construct: also called huCTLA4
T1 sequence (P16410 36-223): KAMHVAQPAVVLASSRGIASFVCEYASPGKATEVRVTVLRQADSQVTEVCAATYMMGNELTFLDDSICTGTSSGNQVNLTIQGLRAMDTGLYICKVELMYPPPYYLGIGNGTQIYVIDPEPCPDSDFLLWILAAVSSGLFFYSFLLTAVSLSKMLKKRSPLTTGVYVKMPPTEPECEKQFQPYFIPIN
Reported Fold change to WT CD80 values for a set of binders
result.type: Fold change to WT CD80

INSERT INTO assay_data (binder, result_type, recorded_measurement) VALUES
  ('variant CD80 IgV-Fc H18Y/E35D/M47L (Fc fusion, not shown: a dimerising Fc or GST) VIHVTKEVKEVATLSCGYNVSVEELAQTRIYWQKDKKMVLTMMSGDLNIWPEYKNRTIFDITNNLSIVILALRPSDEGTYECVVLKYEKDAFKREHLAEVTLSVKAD', 'Fold change to WT CD80', '1.59 fold'),
  ('variant CD80 IgV-Fc E35D/M47L/L85Q (Fc fusion, not shown: a dimerising Fc or GST) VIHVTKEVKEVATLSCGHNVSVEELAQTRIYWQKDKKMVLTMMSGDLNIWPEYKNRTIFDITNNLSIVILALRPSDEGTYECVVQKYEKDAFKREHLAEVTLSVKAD', 'Fold change to WT CD80', '1.88 fold'),
  ('variant CD80 IgV-Fc V22A/E23D/Q33L/E35D/M47V (Fc fusion, not shown: a dimerising Fc or GST) VIHVTKEVKEVATLSCGHNVSADELAQTRIYWLKDKKMVLTMMSGDVNIWPEYKNRTIFDITNNLSIVILALRPSDEGTYECVVLKYEKDAFKREHLAEVTLSVKAD', 'Fold change to WT CD80', '0.02 fold'),
  ('variant CD80 IgV-Fc H18Y/Q33L/E35D/M47I (Fc fusion, not shown: a dimerising Fc or GST) VIHVTKEVKEVATLSCGYNVSVEELAQTRIYWLKDKKMVLTMMSGDINIWPEYKNRTIFDITNNLSIVILALRPSDEGTYECVVLKYEKDAFKREHLAEVTLSVKAD', 'Fold change to WT CD80', '0.03 fold'),
  ('variant CD80 IgV-Fc Q27H/Q33L/E35D/M47V/N55D/L85Q/K89N (Fc fusion, not shown: a dimerising Fc or GST) VIHVTKEVKEVATLSCGHNVSVEELAHTRIYWLKDKKMVLTMMSGDVNIWPEYKDRTIFDITNNLSIVILALRPSDEGTYECVVQKYENDAFKREHLAEVTLSVKAD', 'Fold change to WT CD80', '0.31 fold'),
  ('variant CD80 IgV-Fc A26E/Q33R/E35D/M47L/L85Q (Fc fusion, not shown: a dimerising Fc or GST) VIHVTKEVKEVATLSCGHNVSVEELEQTRIYWRKDKKMVLTMMSGDLNIWPEYKNRTIFDITNNLSIVILALRPSDEGTYECVVQKYEKDAFKREHLAEVTLSVKAD', 'Fold change to WT CD80', '0.01 fold');
